Entries annotated with measured log10(MIC)
Test system: Lactobacillus plantarum P6
Experiment: Drug resistance determination (E-test strips, MIC)
Type: cell-based
Conditions: Lactiplantibacillus plantarum, P6; E-test, MH solid medium, 37° C., 24-48 hours; read-out: Minimum inhibitory concentration MIC
Please be aware that the numbers have been log10-transformed from MIC in µg/mL.

{"molecular_string": "CC[C@H]1OC(=O)[C@H](C)[C@@H](O[C@H]2C[C@@](C)(OC)[C@@H](O)[C@H](C)O2)[C@H](C)[C@@H](O[C@@H]2O[C@H](C)C[C@H](N(C)C)[C@H]2O)[C@](C)(O)C[C@@H](C)C(=O)[C@H](C)[C@@H](O)[C@]1(C)O", "recorded_measurement": -0.42}
{"molecular_string": "CC[C@H]1OC(=O)[C@H](C)[C@@H](O[C@H]2C[C@@](C)(OC)[C@@H](O)[C@H](C)O2)[C@H](C)[C@@H](O[C@@H]2O[C@H](C)C[C@H](N(C)C)[C@H]2O)[C@](C)(O)C[C@@H](C)CN(C)[C@H](C)[C@@H](O)[C@]1(C)O", "recorded_measurement": -1.03}
{"molecular_string": "NCC[C@H](O)C(=O)N[C@@H]1C[C@H](N)[C@@H](O[C@H]2O[C@H](CN)[C@@H](O)[C@H](O)[C@H]2O)[C@H](O)[C@H]1O[C@H]1O[C@H](CO)[C@@H](O)[C@H](N)[C@H]1O", "recorded_measurement": 0.30}
{"molecular_string": "O=C(N[C@H](CO)[C@H](O)c1ccc([N+](=O)[O-])cc1)C(Cl)Cl", "recorded_measurement": 1.20}
{"molecular_string": "CN(C)[C@@H]1C(O)=C(C(N)=O)C(=O)[C@@]2(O)C(O)=C3C(=O)c4c(O)cccc4[C@@](C)(O)[C@H]3C[C@@H]12", "recorded_measurement": 2.41}

Looking for the measured log10(MIC) of CC1(C)S[C@@H]2[C@H](NC(=O)[C@H](N)c3ccccc3)C(=O)N2[C@H]1C(=O)O , can you help? 0.18

Looking for the measured log10(MIC) of CO/N=C(\C(=O)N[C@@H]1C(=O)N2C(C(=O)O)=C(CSc3nc(=O)c(=O)[nH]n3C)CS[C@H]12)c1csc(N)n1 , can you help? -0.90

Looking for the measured log10(MIC) of CCC[C@@H]1C[C@@H](C(=O)N[C@@H]([C@H]2O[C@H](SC)[C@H](O)[C@@H](O)[C@H]2O)[C@H](C)Cl)N(C)C1 , can you help? -1.80

Just for reference, patent US12389930B2 is where these values come from.
